- Tested on: 5 HTP
- run_description: Potentialization of 5 HTP
- Type: in vivo
metric: ED50 (mg/kg)

>  <compound>
COc1ccc(-c2cnn(C(C)C(C)=O)c(=O)n2)cc1 (stereo not drawn)

>  <metric>
ED50

>  <value_observed>
35

$$$$
>  <compound>
COc1ccc(-c2cnn(C3CCOC3=O)c(=O)n2)cc1 (stereo not drawn)

>  <metric>
ED50

>  <value_observed>
27

$$$$
>  <compound>
CC(=O)COc1ccc(-c2cnn(C)c(=O)n2)cc1

>  <metric>
ED50

>  <value_observed>
40

$$$$
>  <compound>
COc1ccc(-c2cnn(CC(N)=O)c(=O)n2)cc1

>  <metric>
ED50

>  <value_observed>
20

$$$$
>  <compound>
COc1ccc(-c2cnn(CC(C)=O)c(=O)n2)cc1

>  <metric>
ED50

>  <value_observed>
25

$$$$
>  <compound>
COc1ccccc1-c1cnn(CC(C)=O)c(=O)n1

>  <metric>
ED50

>  <value_observed>
50

$$$$

* * *

- run_description: Solubility
- Assay type: physicochemical
- condition_set: chloroform

>  <compound>
COc1ccc(-c2cnn(CCCN(C)C)c(=O)n2)cc1 [Example 17]

>  <solubility in chloroform>
Soluble

$$$$
>  <compound>
COc1ccc(-c2cnn(CCN3CCN(c4cccc(Cl)c4)CC3)c(=O)n2)cc1 [Example 10]

>  <solubility in chloroform>
Poorly soluble

$$$$
>  <compound>
COc1ccc(-c2cnn(CC(C)=O)c(=O)n2)c(OC)c1 [Example 25]

>  <solubility in chloroform>
Soluble

$$$$
>  <compound>
COc1ccccc1-c1cnn(CC(C)=O)c(=O)n1 [Example 23]

>  <solubility in chloroform>
Soluble

$$$$
>  <compound>
CC(=O)Cn1ncc(-c2ccc(C)cc2)nc1=O [Example 6]

>  <solubility in chloroform>
Soluble

$$$$
>  <compound>
COc1ccc(-c2cnn(C(C)C(C)=O)c(=O)n2)cc1 (stereo not shown) [Example 4]

>  <solubility in chloroform>
Soluble

$$$$
>  <compound>
Cc1ccc(-c2cnn(C(CCO)C(=O)O)c(=O)n2)cc1 (stereo not shown) [Example 19]

>  <solubility in chloroform>
Poorly soluble

$$$$
>  <compound>
COc1ccc(C2C=NN(CCCN3CCN(c4cccc(Cl)c4)CC3)C(=O)N2)cc1 (stereo not shown) [Example 12]

>  <solubility in chloroform>
Soluble

$$$$
>  <compound>
COc1ccc(-c2cnn(C(c3ccccc3)c3ccccc3)c(=O)n2)cc1 [Example 30]

>  <solubility in chloroform>
insoluble

$$$$
>  <compound>
CC(=O)COc1ccc(-c2cnn(C)c(=O)n2)cc1 [Example 9]

>  <solubility in chloroform>
insoluble

$$$$
>  <compound>
COc1ccc(-c2cnn(C(CCO)C(=O)O)c(=O)n2)cc1 (stereo not shown) [Example 18]

>  <solubility in chloroform>
Poorly soluble

$$$$
>  <compound>
Cc1ccc(-c2cnn(C3CCOC3=O)c(=O)n2)cc1 (stereo not shown) [Example 20]

>  <solubility in chloroform>
Soluble

$$$$
>  <compound>
CCOC(=O)CCCn1ncc(-c2ccc(C)cc2)nc1=O [Example 35]

>  <solubility in chloroform>
Soluble

$$$$
>  <compound>
CC(=O)Cn1ncc(-c2ccccc2)nc1=O [Example 7, 2-acetonyl 3-oxo 5-phenyl as.-triazine]

>  <solubility in chloroform>
Soluble

$$$$
>  <compound>
Cc1ccc(C2C=NN(C(c3ccccc3)C(O)c3ccccc3)C(=O)N2)cc1 (stereo not shown) [Example 29]

>  <solubility in chloroform>
insoluble

$$$$
>  <compound>
COc1ccc(-c2cnn(CCCC(=O)c3ccc(F)cc3)c(=O)n2)cc1 [Example 33]

>  <solubility in chloroform>
Soluble

$$$$
>  <compound>
COc1ccc(-c2cnn(CCCCCN3CCN(c4cccc(Cl)c4)CC3)c(=O)n2)cc1 [Example 15]

>  <solubility in chloroform>
Soluble

$$$$
